Where these numbers come from: ChEMBL document CHEMBL1201862

Test system: OVCAR-3
Experiment: NCI tumour cell line growth inhibition, 48 h
Calls of active or inactive are those of the source. Cut-off read from the data, not from the text of the source: active = GI50 up to about 1.1 µM and inactive = higher.
property.measured: GI50

// GI50 lookup, compound = C#C[C@]1(O)CC[C@H]2[C@@H]3CCC4=C/C(=N\OCCN5CCCCC5)CC[C@]4(C)[C@H]3CC[C@@]21C , result: 5.15 µM (inactive)

// GI50 lookup, compound = O=C1C=C(Nc2ccccc2C(=O)CC(=O)C(=O)Nc2ccc(Cl)c(Cl)c2)c2ccccc2C1=O , result: 34.4 µM (inactive)

// GI50 lookup, compound = O=C(CC(=O)N1N=C(N2CCCCC2)CC1c1ccccc1)Nc1ccc(Cl)cc1 (configuration not stated) , result: > 100 µM (inactive)

// GI50 lookup, compound = COc1cc2c[n+](C)c3c4cc(OC)c(OC)cc4ccc3c2cc1OC , result: 29.1 µM (inactive)

// GI50 lookup, compound = O=C1Oc2ccccc2N/C1=C/C(=O)c1ccc([N+](=O)[O-])cc1 , result: > 100 µM (inactive)

// GI50 lookup, compound = CN1N=C(c2ccncc2)OC1c1cccc(F)c1 (configuration not stated) , result: > 100 µM (inactive)

// GI50 lookup, compound = O=C1c2ccccc2C(=O)N1CCn1nc(-c2ccccc2)cc(-c2ccccc2)c1=O , result: 27.2 µM (inactive)

----------
Test system: RXF 393
Assay: NCI tumour cell line growth inhibition, 48 h
Active and inactive are the calls of the source. No stated cut-off is given here; in the data, active = GI50 up to about 1.1 µM and inactive = higher. Square brackets hold non-standard residues; d marks the D form. Peptide text beside a SMILES is read from it. * marks the point of attachment. ξ: configuration not given here. NMeN = CN[C@@H](CC(N)=O)C(=O)O; NMeV = CN[C@H](C(=O)O)C(C)C; ξNMeV = CNC(C(=O)O)C(C)C; Boc = CC(C)(C)OC(=O)*; ξNMeA = CNC(C)C(=O)O
property.measured: GI50

// GI50 lookup, compound = CSC(=S)OC1C(CO[Si](C)(C)C(C)(C)C)OC2OC(C)(C)OC21 (stereo not drawn) , result: 20.6 µM (inactive)

// GI50 lookup, compound = O=C1CCCn2c(nc3ccccc32)N1 , result: > 100 µM (inactive)

// GI50 lookup, compound = COC(=O)C(C)N(C)C(=O)[C@H](CC(N)=O)N(C)C(=O)[C@@H]1CCCN1C(=O)[C@H](C(C)C)N(C)C(=O)C(C(C)C)N(C)C(=O)[C@@H](NC(=O)OC(C)(C)C)C(C)C (stereo partly drawn) (Boc-V[ξNMeV][NMeV]P[NMeN][ξNMeA]-OMe) , result: > 50 µM (inactive)

// GI50 lookup, compound = NC(=O)c1csc(CCCCCCc2nc(C(N)=O)cs2)n1 , result: > 100 µM (inactive)

// GI50 lookup, compound = O=C1c2ccccc2C(=O)N1CCn1nc(-c2ccccc2)cc(-c2ccccc2)c1=O , result: > 100 µM (inactive)

// GI50 lookup, compound = CCOC(=O)c1cc(C(=O)c2ccccc2)n2nc(-c3ccc(Cl)cc3)ccc12 , result: 15.2 µM (inactive)

// GI50 lookup, compound = CCOC(=O)C1=COC(C)(c2ccccc2)CC1=O (stereo not drawn) , result: 63.1 µM (inactive)

// GI50 lookup, compound = COC(=O)N(C(=O)OC)C(C(=O)O)C(C)C (stereo not drawn) , result: 65 µM (inactive)
